- target.desc: HIV-integrase (Human immunodeficiency virus type 1 group M subtype B, UniProt P04585)
- Construct: Recombinant integrase (0.26 ng) was incubated with the beads
- protocol.summary: in-vitro activity against HIV-integrase (HIV Integrase Inhibition, SPA bead assay)
- Assay type: biochemical
- study.conditions: Table 1; recombinant integrase, activity class
We begin with a simple list: items and their reported IC50.

O=C(NCc1ccc(F)cc1)c1nc2n(c(=O)c1O)CCOC21CCCC1 : 1 to 10 nM

Lab note: O=C(NCc1ccccc1F)c1nc2n(c(=O)c1O)CCCC21CCC1 gave IC50 of 10 to 100 nM

Lab note: O=C(NCc1ccc(Cl)cc1)c1nc2n(c(=O)c1O)CCOC21CCCC1 gave IC50 of 1 to 10 nM

Lab note: CS(=O)(=O)c1cc(F)ccc1CNC(=O)c1nc2n(c(=O)c1O)CCOC21CCCC1 gave IC50 of 1 to 10 nM

Lab note: Cc1ccc(CNC(=O)c2nc3n(c(=O)c2O)CCCC32CCC2)cc1 gave IC50 of 10 to 100 nM

Lab note: O=C(NCc1ccc(F)cc1)c1nc2n(c(=O)c1O)CCC21CCCC1 gave IC50 of 1 to 10 nM

Lab note: O=C(NCc1cccc(F)c1-n1cncn1)c1nc2n(c(=O)c1O)CCCC21CCCC1 gave IC50 of 1 to 10 nM

Lab note: O=C(NCc1ccc(F)cc1)c1nc2n(c(=O)c1O)CCCC21CCC1 gave IC50 of 1 to 10 nM

Lab note: Cc1ncnn1-c1cc(F)ccc1CNC(=O)c1nc2n(c(=O)c1O)CCOC21CCC1 gave IC50 of 1 to 10 nM

Lab note: CSc1cc(F)ccc1CNC(=O)c1nc2n(c(=O)c1O)CCOC21CCCC1 gave IC50 of 1 to 10 nM

====

- target.desc: HIV-integrase (Human immunodeficiency virus type 1 group M subtype B, UniProt P04585)
- Construct: Recombinant integrase (0.26 ng) was incubated with the beads
- protocol.summary: in-vitro activity against HIV-integrase (HIV Integrase Inhibition, SPA bead assay)
- Assay type: biochemical
- study.conditions: Table 1a; recombinant integrase, activity class
pIC50: −log10 of the molar value.
quantity.measured: pIC50

O=C(NCc1ccc(F)cc1-n1ccnn1)c1nc2n(c(=O)c1O)CCCOC21CCOCC1 [Example 122] : 8.00 to 9.00
Cc1ncnn1-c1cc(F)ccc1CNC(=O)c1nc2n(c(=O)c1O)CCCOC21CCOCC1 [Example 120] : 7.00 to 8.00

Lab note: O=C(NCc1ccc(F)cc1-n1ccnn1)c1nc2n(c(=O)c1O)CCOC21CCC1 [Example 101] gave pIC50 of 8.00 to 9.00

Lab note: Cc1ncnn1-c1cc(F)ccc1CNC(=O)c1nc2n(c(=O)c1O)CCN(C)C21CCCCC1 [Example 97] gave pIC50 of 7.00 to 8.00

Lab note: O=C(NCc1ccc(F)cc1-n1cncn1)c1nc2n(c(=O)c1O)CCCOC21CCOCC1 [Example 118] gave pIC50 of 8.00 to 9.00

Lab note: O=C(NCc1ccc(F)cc1N1CCOC1=O)c1nc2n(c(=O)c1O)CCOC21CCC1 [Example 105] gave pIC50 of 8.00 to 9.00

Reference source: patent US7419969B2
